Molecular target: Protein cereblon/Dual specificity protein kinase TTK (Homo sapiens, UniProt P33981+Q96SW2)
Test: Protac activity at CRBN/TTK in human COLO 205 cells assessed as TTK degradation by measuring maximum degradation after 6 hrs by Western blotting analysis relative to control
Assay type: cell-based
Sequence (P33981 whole entry, looked up): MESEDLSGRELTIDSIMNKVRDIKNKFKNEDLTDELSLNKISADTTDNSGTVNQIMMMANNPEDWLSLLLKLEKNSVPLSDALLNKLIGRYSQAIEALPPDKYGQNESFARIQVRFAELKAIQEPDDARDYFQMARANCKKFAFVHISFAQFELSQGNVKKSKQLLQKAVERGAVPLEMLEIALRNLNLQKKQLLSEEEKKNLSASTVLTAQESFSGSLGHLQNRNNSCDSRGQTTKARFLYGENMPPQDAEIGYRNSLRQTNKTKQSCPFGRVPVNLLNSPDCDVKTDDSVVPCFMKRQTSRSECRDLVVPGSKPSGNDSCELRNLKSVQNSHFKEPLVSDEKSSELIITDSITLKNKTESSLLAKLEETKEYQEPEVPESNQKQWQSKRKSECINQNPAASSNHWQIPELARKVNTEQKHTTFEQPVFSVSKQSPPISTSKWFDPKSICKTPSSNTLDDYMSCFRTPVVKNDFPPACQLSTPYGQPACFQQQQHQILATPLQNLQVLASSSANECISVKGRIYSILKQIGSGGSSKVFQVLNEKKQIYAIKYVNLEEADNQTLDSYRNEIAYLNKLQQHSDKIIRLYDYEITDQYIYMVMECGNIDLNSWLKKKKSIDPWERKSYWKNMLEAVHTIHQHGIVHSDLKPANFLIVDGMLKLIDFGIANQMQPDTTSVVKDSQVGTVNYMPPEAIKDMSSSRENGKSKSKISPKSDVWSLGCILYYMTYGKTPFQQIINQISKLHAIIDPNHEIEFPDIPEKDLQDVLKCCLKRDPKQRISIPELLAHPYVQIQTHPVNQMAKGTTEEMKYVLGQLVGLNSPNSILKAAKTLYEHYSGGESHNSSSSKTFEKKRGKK
Sequence (Q96SW2 whole entry, looked up): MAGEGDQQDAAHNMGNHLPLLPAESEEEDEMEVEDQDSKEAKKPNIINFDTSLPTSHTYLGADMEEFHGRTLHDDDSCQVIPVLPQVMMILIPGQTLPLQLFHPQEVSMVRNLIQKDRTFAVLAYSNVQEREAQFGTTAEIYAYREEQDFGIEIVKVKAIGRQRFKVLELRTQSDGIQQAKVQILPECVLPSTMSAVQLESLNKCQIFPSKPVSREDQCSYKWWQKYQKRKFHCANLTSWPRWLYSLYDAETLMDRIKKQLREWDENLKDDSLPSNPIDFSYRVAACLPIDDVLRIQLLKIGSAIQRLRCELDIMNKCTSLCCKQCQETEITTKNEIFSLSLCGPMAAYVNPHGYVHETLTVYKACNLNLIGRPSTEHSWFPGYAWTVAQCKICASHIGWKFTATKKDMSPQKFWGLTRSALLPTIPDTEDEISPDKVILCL
ASSAY ENDPOINT: Emax (%)
Report the figure in % without appending any unit label.

[[record]]
compound = "CCC(=O)N[C@H]1CC[C@@H](n2c(=O)cc(C)c3cnc(Nc4ccc(N5CCN(C(=O)CCCC#Cc6cccc7c6CN(C6CCC(=O)NC6=O)C7=O)CC5)cc4OC)nc32)CC1 (stereo partly drawn)"
assay_endpoint = "Emax"
test_result = 28


What Emax value was documented for this compound, CCC(=O)N[C@H]1CC[C@@H](n2c(=O)cc(C)c3cnc(Nc4ccc(N5CCN(C(=O)CCCC#Cc6ccc7c(c6)CN(C6CCC(=O)NC6=O)C7=O)CC5)cc4OC)nc32)CC1 (stereo partly drawn) ?
88

Would you mind telling me what Emax value was observed for CCC(=O)N[C@H]1CC[C@@H](n2c(=O)cc(C)c3cnc(Nc4ccc(N5CCN(C(=O)CCCCCC#Cc6ccc7c(c6)CN(C6CCC(=O)NC6=O)C7=O)CC5)cc4OC)nc32)CC1 (stereo partly drawn) ?
86

* * *

Target: Protein cereblon/Dual specificity protein kinase TTK (Homo sapiens, UniProt P33981+Q96SW2)
Test: Protac activity at CRBN/TTK in human COLO 205 cells assessed as degradation of TTK measured after 6 hrs by Western blotting analysis
Type: cell-based
Sequence (P33981 whole entry): as the sequence (P33981 whole entry, looked up) above
Sequence (Q96SW2 whole entry): as the sequence (Q96SW2 whole entry, looked up) above
ASSAY ENDPOINT: DC50 (nM)
Quick reminder: number only, in nM, skip the unit.

// worked examples, DC50 included
[[record]]
molecule = "CCC(=O)N[C@H]1CC[C@@H](n2c(=O)cc(C)c3cnc(Nc4ccc(N5CCN(C(=O)CCCCCCCCCC#Cc6cccc7c6CN(C6CCC(=O)NC6=O)C7=O)CC5)cc4OC)nc32)CC1 (stereo not given in full)"
test_result = 2.2

[[record]]
molecule = "CCC(=O)N[C@H]1CC[C@@H](n2c(=O)cc(C)c3cnc(Nc4ccc(N5CCN(C(=O)CCCCCCCCCC#Cc6ccc7c(c6)CN(C6CCC(=O)NC6=O)C7=O)CC5)cc4OC)nc32)CC1 (stereo not given in full)"
test_result = 5.6

[[record]]
molecule = "CCC(=O)N[C@H]1CC[C@@H](n2c(=O)cc(C)c3cnc(Nc4ccc(N5CCN(C(=O)CCCC#Cc6ccc7c(c6)CN(C6CCC(=O)NC6=O)C7=O)CC5)cc4OC)nc32)CC1 (stereo not given in full)"
test_result = 1.7

[[record]]
molecule = "CCC(=O)N[C@H]1CC[C@@H](n2c(=O)cc(C)c3cnc(Nc4ccc(N5CCN(C(=O)CCCCCCCC#Cc6ccc7c(c6)C(=O)N(C6CCC(=O)NC6=O)C7)CC5)cc4OC)nc32)CC1 (stereo not given in full)"
test_result = 7


Name the recorded DC50 for CCC(=O)N[C@H]1CC[C@@H](n2c(=O)cc(C)c3cnc(Nc4ccc(N5CCN(C(=O)CCCCCC#Cc6cccc7c6C(=O)N(C6CCC(=O)NC6=O)C7)CC5)cc4OC)nc32)CC1 (stereo not given in full) .
31.3

* * *

The following compounds are shown together with reported DC50 values.
Biological target: Protein cereblon/Dual specificity protein kinase TTK (Homo sapiens, UniProt P33981+Q96SW2)
Assay: Protac activity at CRBN/TTK in human HCT-116 cells assessed as degradation of TTK measured after 6 hrs by Western blotting analysis
Type: cell-based
Entry rule: numbers only, all in nM.

[[record]]
compound = "CCC(=O)N[C@H]1CC[C@@H](n2c(=O)cc(C)c3cnc(Nc4ccc(N5CCN(C(=O)CCCCCCCCCC#Cc6ccc7c(c6)CN(C6CCC(=O)NC6=O)C7=O)CC5)cc4OC)nc32)CC1 (stereo not given in full)"
units_label = "nM"
test_result = 30.2


Record request: DC50 value, item CCC(=O)N[C@H]1CC[C@@H](n2c(=O)cc(C)c3cnc(Nc4ccc(N5CCN(C(=O)CCCC#Cc6ccc7c(c6)CN(C6CCC(=O)NC6=O)C7=O)CC5)cc4OC)nc32)CC1 (stereo not given in full)
5.8

Give the measured DC50 of CCC(=O)N[C@H]1CC[C@@H](n2c(=O)cc(C)c3cnc(Nc4ccc(N5CCN(C(=O)CCCCCCCC#Cc6cccc7c6C(=O)N(C6CCC(=O)NC6=O)C7)CC5)cc4OC)nc32)CC1 (stereo not given in full) .
496

* * *

Target: Protein cereblon/Dual specificity protein kinase TTK (Homo sapiens, UniProt P33981+Q96SW2)
Assay: Protac activity at CRBN/TTK in human HCT-116 cells assessed as TTK degradation by measuring maximum degradation after 6 hrs by Western blotting analysis relative to control
Format: cell-based
# Emax per entry
Dear colleague, please return just the value in %, with no unit written.

Known results for molecules:
[[record]]
molecule = "CCC(=O)N[C@H]1CC[C@@H](n2c(=O)cc(C)c3cnc(Nc4ccc(N5CCN(C(=O)CCCCCC#Cc6cccc7c6CN(C6CCC(=O)NC6=O)C7=O)CC5)cc4OC)nc32)CC1 (stereo partly drawn)"
units_label = "%"
test_result = 50

[[record]]
molecule = "CCC(=O)N[C@H]1CC[C@@H](n2c(=O)cc(C)c3cnc(Nc4ccc(N5CCN(C(=O)CCCC#Cc6ccc7c(c6)CN(C6CCC(=O)NC6=O)C7=O)CC5)cc4OC)nc32)CC1 (stereo partly drawn)"
units_label = "%"
test_result = 80


Now for a further molecule.
// returns reported Emax for input CCC(=O)N[C@H]1CC[C@@H](n2c(=O)cc(C)c3cnc(Nc4ccc(N5CCN(C(=O)CCCCCCCCCC#Cc6cccc7c6C(=O)N(C6CCC(=O)NC6=O)C7)CC5)cc4OC)nc32)CC1 (stereo partly drawn)
13

* * *

Target: Protein cereblon/Dual specificity protein kinase TTK (Homo sapiens, UniProt P33981+Q96SW2)
Assay: Protac activity at CRBN/TTK in human HCT-116 cells assessed as TTK degradation by measuring maximum degradation after 6 hrs by Western blotting analysis relative to control
Assay type: cell-based
Reported Emax values are given for each entry in this list.
Kindly answer with a numeric value in %, unit omitted.

Use the examples below as a reference point.
[[record]]
compound = "CCC(=O)N[C@H]1CC[C@@H](n2c(=O)cc(C)c3cnc(Nc4ccc(N5CCN(C(=O)CCCC#Cc6ccc7c(c6)C(=O)N(C6CCC(=O)NC6=O)C7)CC5)cc4OC)nc32)CC1 (stereo partly drawn)"
assay_endpoint = "Emax"
test_result = 57

[[record]]
compound = "CCC(=O)N[C@H]1CC[C@@H](n2c(=O)cc(C)c3cnc(Nc4ccc(N5CCN(C(=O)CCCCCCCC#Cc6ccc7c(c6)C(=O)N(C6CCC(=O)NC6=O)C7)CC5)cc4OC)nc32)CC1 (stereo partly drawn)"
assay_endpoint = "Emax"
test_result = 43


Continue with the next compound.
Look up Emax: CCC(=O)N[C@H]1CC[C@@H](n2c(=O)cc(C)c3cnc(Nc4ccc(N5CCN(C(=O)CCCCCCCC#Cc6cccc7c6CN(C6CCC(=O)NC6=O)C7=O)CC5)cc4OC)nc32)CC1 (stereo partly drawn)
53

* * *

Molecular target: Protein cereblon/Dual specificity protein kinase TTK (Homo sapiens, UniProt P33981+Q96SW2)
Experiment: Protac activity at CRBN/TTK in human COLO 205 cells assessed as TTK degradation by measuring maximum degradation after 6 hrs by Western blotting analysis relative to control
Assay type: cell-based
Entries and their Emax values follow.
# output: bare number, implied unit %

Completed entries (count: 4):
[[record]]
compound = "CCC(=O)N[C@H]1CC[C@@H](n2c(=O)cc(C)c3cnc(Nc4ccc(N5CCN(C(=O)CCCCCCCCCC#Cc6ccc7c(c6)C(=O)N(C6CCC(=O)NC6=O)C7)CC5)cc4OC)nc32)CC1 (stereo not given in full)"
units_label = "%"
test_result = 87

[[record]]
compound = "CCC(=O)N[C@H]1CC[C@@H](n2c(=O)cc(C)c3cnc(Nc4ccc(N5CCN(C(=O)CCCCCCCC#Cc6ccc7c(c6)CN(C6CCC(=O)NC6=O)C7=O)CC5)cc4OC)nc32)CC1 (stereo not given in full)"
units_label = "%"
test_result = 85

[[record]]
compound = "CCC(=O)N[C@H]1CC[C@@H](n2c(=O)cc(C)c3cnc(Nc4ccc(N5CCN(C(=O)CCCCCC#Cc6ccc7c(c6)C(=O)N(C6CCC(=O)NC6=O)C7)CC5)cc4OC)nc32)CC1 (stereo not given in full)"
units_label = "%"
test_result = 82

[[record]]
compound = "CCC(=O)N[C@H]1CC[C@@H](n2c(=O)cc(C)c3cnc(Nc4ccc(N5CCN(C(=O)CCCCCCCC#Cc6ccc7c(c6)C(=O)N(C6CCC(=O)NC6=O)C7)CC5)cc4OC)nc32)CC1 (stereo not given in full)"
units_label = "%"
test_result = 84


Next up:
# query: Emax | item CCC(=O)N[C@H]1CC[C@@H](n2c(=O)cc(C)c3cnc(Nc4ccc(N5CCN(C(=O)CCCCCCCC#Cc6cccc7c6C(=O)N(C6CCC(=O)NC6=O)C7)CC5)cc4OC)nc32)CC1 (stereo not given in full) | system: Protein cereblon/Dual specificity protein kinase TTK (Homo sapiens, UniProt P33981+Q96SW2)
73

The measurements presented in this section are drawn from ChEMBL document CHEMBL5038659.
